Assay: qHTS assay for identifying genotoxic compounds that show differential cytotoxicity against isogenic chicken DT40 cell lines with known DNA damage response pathways - Rad54/Ku70 mutant cell line (AID 743015); further: nearly all actives have a fitted effect of over 60% in size; further: potency means the concentration at half of the fitted maximal effect
Conditions: DT40 Rad54/Ku70 mutant viability, CellTiter-Glo, 40 h; series mostly up to 66.8 µM
Inconclusive results are not listed. Activity calls are given as the source filed them. The call rests on the fitted dose curve; in most records, active means well fitted cell-killing curve with a large enough effect in the repeat runs; inconclusive means weak or mixed curves; inactive means no such curve, though single readings can be large or run the other way.
Recorded Metric: Potency

O=c1c(-c2ccccc2)c1-c1ccccc1
4.73 µM (active)
NC(=O)CC[C@@H]1NC(=O)[C@H](Cc2ccccc2)NC(=O)[C@H](Cc2ccc(O)cc2)NC(=O)CCSSC[C@@H](C(=O)N2CCC[C@H]2C(=O)N[C@@H](CCCN=C(N)N)C(=O)NCC(N)=O)NC(=O)[C@H](CC(N)=O)NC1=O
inactive
CCCC(C)c1ccccc1O (stereo not drawn)
61.1 µM (active)
COc1ccc(C(=O)/C(Br)=C\C(=O)O)cc1
6.11 µM (active)
O=C(NO)C1(NS(=O)(=O)c2ccc(Oc3ccc(F)cc3)cc2)CCOCC1
30.6 µM (active)
CNC(=O)c1ccccc1
inactive

Provide Potency for all items below, preserving their order.
1. CCC1=C[C@@H]2CN(C1)Cc1c([nH]c3ccccc13)[C@@](C(=O)OC)(c1cc3c(cc1OC)N(C)[C@H]1[C@@](O)(C(=O)OC)[C@H](OC(C)=O)[C@]4(CC)C=CCN5CC[C@]31[C@@H]54)C2
2. CCCC/C=C/CCCCO
3. CCCCc1oc2ccc(NS(C)(=O)=O)cc2c1C(=O)c1ccc(OCCCN(CCCC)CCCC)cc1

Result block:
1. 0.119 µM (active)
2. inactive
3. 18.8 µM (active)

Sourced from PubChem BioAssay (Tox21)
